All values here come from paper PMC8185074.

target_desc: HDAC3 (Homo sapiens)
Construct: purchased Reaction Biology Corporation (assay run by the CRO)
Sequence (O15379 whole entry): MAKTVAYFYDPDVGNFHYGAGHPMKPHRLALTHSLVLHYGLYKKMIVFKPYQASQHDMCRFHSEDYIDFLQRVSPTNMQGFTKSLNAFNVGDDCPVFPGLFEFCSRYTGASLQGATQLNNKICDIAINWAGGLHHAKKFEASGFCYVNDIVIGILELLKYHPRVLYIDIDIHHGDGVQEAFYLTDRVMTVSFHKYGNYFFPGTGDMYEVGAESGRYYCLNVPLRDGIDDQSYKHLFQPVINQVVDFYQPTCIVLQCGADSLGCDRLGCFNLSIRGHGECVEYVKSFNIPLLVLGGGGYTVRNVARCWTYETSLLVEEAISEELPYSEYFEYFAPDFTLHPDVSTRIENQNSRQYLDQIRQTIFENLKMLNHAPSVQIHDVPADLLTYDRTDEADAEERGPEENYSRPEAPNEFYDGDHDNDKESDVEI
Sequence (Q9Y618 395-489 partner limits assumed): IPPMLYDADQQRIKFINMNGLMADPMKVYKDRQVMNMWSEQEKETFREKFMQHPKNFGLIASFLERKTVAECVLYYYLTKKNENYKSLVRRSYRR
procedure_details: HDAC3 inhibition, full IC50 measurement (Reaction Biology; fluorogenic p53 peptide RHKK(Ac)AMC)
Format: biochemical
setup_conditions: Conc. 5.08E-10 M, t1
Peptide text beside a SMILES is read from it.

{"columns": ["compound", "HDAC3 activity raw data (signal)"],
 "data": [
  ["CC(C)C[C@H]1NC(=O)[C@H](Cc2c[nH]c3ccccc23)NC(=O)[C@H](CCCCCS)NC(=O)[C@@H](Cc2ccc(O)cc2)NC(=O)[C@@H](C(C)C)NC(=O)[C@H](Cc2c[nH]cn2)NC(=O)CNC(=O)CNC(=O)[C@@H](CO)NC1=O [des2.2.0, SHA-Trp-dLeu-dSer-Gly-Gly-His-dVal-dTyr] (HELM PEPTIDE1{G.G.H.[dV].[dY].[O=C([C@H](CCCCCS)N[*:1])[*:2]].W.[dL].[dS]}$PEPTIDE1,PEPTIDE1,1:R1-9:R2$$$V2.0)", 965053],
  ["N=C(N)NCCC[C@@H]1NC(=O)[C@@H](CCCNC(=N)N)NC(=O)[C@H]2CCCN2C(=O)[C@@H](Cc2c[nH]cn2)NC(=O)[C@H](Cc2ccc(O)cc2)NC(=O)[C@H](CCCCCS)NC(=O)[C@H](CCc2ccccc2)NC(=O)[C@@H](CO)NC(=O)[C@H](CC(=O)O)NC1=O [des3.3.1, SHA-Tyr-dHis-dPro-dArg-Arg-Asp-dSer-C27] (HELM PEPTIDE1{[O=C([C@H](CCCCCS)N[*:1])[*:2]].Y.[dH].[dP].[dR].R.D.[dS].[O=C([C@H](CCc1ccccc1)N[*:1])[*:2]]}$PEPTIDE1,PEPTIDE1,1:R1-9:R2$$$V2.0)", 223427],
  ["NCCCC[C@H]1NC(=O)[C@H](CCC(N)=O)NC(=O)[C@H](CCC(=O)O)NC(=O)[C@@H]2CCCN2C(=O)[C@H](CC(N)=O)NC(=O)[C@H](CCCCCS)NC(=O)CNC(=O)[C@H](Cc2c[nH]c3ccccc23)NC1=O [des1.1.1, SHA-Asn-Pro-Glu-Gln-dLys-Trp-Gly] (HELM PEPTIDE1{E.Q.[dK].W.G.[O=C([C@H](CCCCCS)N[*:1])[*:2]].N.P}$PEPTIDE1,PEPTIDE1,1:R1-8:R2$$$V2.0)", 935427]
]}

* * *

target_desc: HDAC3 (Homo sapiens)
Construct: purchased Reaction Biology Corporation (assay run by the CRO)
procedure_details: HDAC3 inhibition, full IC50 measurement (Reaction Biology; fluorogenic p53 peptide RHKK(Ac)AMC)
Format: biochemical
setup_conditions: Conc. 5.08E-10 M, t2
Peptide text beside a SMILES is read from it.

{"columns": ["compound", "target_desc", "HDAC3 activity raw data (signal)"],
 "data": [
  ["N=C(N)NCCC[C@@H]1NC(=O)[C@@H](CCCNC(=N)N)NC(=O)[C@H]2CCCN2C(=O)[C@@H](Cc2c[nH]cn2)NC(=O)[C@H](Cc2ccc(O)cc2)NC(=O)[C@H](CCCCCS)NC(=O)[C@H](CCc2ccccc2)NC(=O)[C@@H](CO)NC(=O)[C@H](CC(=O)O)NC1=O [des3.3.1, SHA-Tyr-dHis-dPro-dArg-Arg-Asp-dSer-C27] (HELM PEPTIDE1{[O=C([C@H](CCCCCS)N[*:1])[*:2]].Y.[dH].[dP].[dR].R.D.[dS].[O=C([C@H](CCc1ccccc1)N[*:1])[*:2]]}$PEPTIDE1,PEPTIDE1,1:R1-9:R2$$$V2.0)", "HDAC3 (Homo sapiens)", 239829]
]}
